B1: POU domain, class 6, transcription factor 2, residues 609 to 663; numbered along this chain, P78424 (parent)
chain: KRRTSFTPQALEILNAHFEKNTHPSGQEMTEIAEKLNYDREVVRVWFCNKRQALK

Variants of: B1
Assay: abundance fitness (aPCA) (normalised: wild type 0, dead -1); higher = more abundant; growth selection in yeast, the domain comes from the species named
Conditions: Homo sapiens
just bin them by abundance fitness: low: < -0.3; mid: ≥ -0.3 and < -0.05; high: ≥ -0.05

Past entries and their recorded results:
[
  {
    "MUTATION_LIST": "L11S",
    "ASSIGNED_LABEL": "mid"
  },
  {
    "MUTATION_LIST": "I32V",
    "ASSIGNED_LABEL": "mid"
  },
  {
    "MUTATION_LIST": "S5Y",
    "ASSIGNED_LABEL": "mid"
  },
  {
    "MUTATION_LIST": "E28G",
    "ASSIGNED_LABEL": "low"
  },
  {
    "MUTATION_LIST": "K35I",
    "ASSIGNED_LABEL": "mid"
  },
  {
    "MUTATION_LIST": "N49H",
    "ASSIGNED_LABEL": "mid"
  }
]

Switching to the query record.
Class label required: R44V
high
